Endpoint Name: melting point

For this compound ( O=C(NCCc1ccnc(-c2nc(=O)c3ccccc3s2)c1)c1ccccc1 ), measured melting point is 216.8 to 219.3 °C

Reported melting point for CC[S+]([O-])Cc1cccc(-c2nc(=O)c3ccccc3s2)n1 (centres unmarked) was 188.5 to 190 °C

compound CC(C)(C)OC(=O)/C=C/c1ccnc(-c2nc(=O)c3ccccc3s2)c1 , melting point observed: 196 to 196.7 °C

Reported melting point ( CCCOc1cccc(-c2nc(=O)c3ccccc3s2)n1 ) = 138.3 to 140 °C

For record O=c1nc(-c2cccc(-c3ccco3)n2)sc2ccccc12 the listed melting point is 217.9 to 218.4 °C

According to the records, this compound O=c1nc(-c2ccccn2)sc2cc(Br)ccc12 displays melting point of 230.7 to 232.2 °C

Entry O=c1nc(-c2ccccn2)sc2ccc(Br)cc12 , melting point reported as 253 to 253.7 °C

Reported melting point for CCCN(C(=O)c1cccc(-c2nc(=O)c3ccccc3s2)n1)C(=O)N(C)C was 190.8 to 192.4 °C

Measured melting point of CC(C)(C)OC(=O)N1CCCC1c1ccnc(-c2nc(=O)c3ccccc3s2)c1 (centres unmarked) : 194.8 to 195.8 °C

Entry O=c1nc(-c2cccc(C[S+]([O-])Cc3ccccc3)n2)sc2ccccc12 (centres unmarked) ; melting point = 187 to 189 °C
